Hey, just so you know, these numbers are from paper PMC6627868.

Condition Description: simulated intestinal fluid, pH 6.5

Line Notation	remaining at 0.5 h
CC[C@H](C)[C@@H]1NC(=O)[C@@H]2CCCN2C(=O)[C@H](CO)NC(=O)[C@H](CCSC)NC(=O)[C@H](C)NC(=O)[C@H](CO)NC(=O)[C@@H]2CSSC[C@H](NC(=O)CN)C(=O)N[C@@H](CSSC[C@@H](C(N)=O)NC1=O)C(=O)N[C@@H](CO)C(=O)N[C@@H](Cc1cnc[nH]1)C(=O)N1CCC[C@H]1C(=O)N[C@@H](C(C)C)C(=O)N2	36.3%
